Test system: CEM cells HIV-1 protection, formazan growth assay
assay.remarks: NCI AIDS Antiviral Assay
pEC50: −log10 of the molar value.
readout: pEC50

[[record]]
compound = "CCOC(=O)c1nc2ccccc2n(CC)c1=O"
target_or_test_system = "CEM cells HIV-1 protection, formazan growth assay"
recorded_measurement = "< 3.70"

[[record]]
compound = "COC(=O)C(NC(=O)c1ccccc1)c1ccco1 (stereo unspecified)"
target_or_test_system = "CEM cells HIV-1 protection, formazan growth assay"
recorded_measurement = "< 3.02"

[[record]]
compound = "COC(=O)c1ncc2c(=O)[nH]c3ccccc3c2c1C(=O)OC"
target_or_test_system = "CEM cells HIV-1 protection, formazan growth assay"
recorded_measurement = "< 4.78"

[[record]]
compound = "CCOC(=O)CCC(NC(=O)C(CCC(=O)OCC)NC(=O)C(Cc1ccc([N+](=O)[O-])cc1)NC(C)=O)C(=O)NNC(=O)OC(C)(C)C (stereo unspecified)"
target_or_test_system = "CEM cells HIV-1 protection, formazan growth assay"
recorded_measurement = "< 3.70"

[[record]]
compound = "O/N=C1\\CC2(N3CCOCC3)CCC1(Cc1ccccc1)CC2"
target_or_test_system = "CEM cells HIV-1 protection, formazan growth assay"
recorded_measurement = "< 4.00"

[[record]]
compound = "Oc1cccc(/C=C/c2cnnc3ccccc23)c1"
target_or_test_system = "CEM cells HIV-1 protection, formazan growth assay"
recorded_measurement = "< 3.70"

[[record]]
compound = "CC(=O)c1ccc(NC(=S)NN)cc1"
target_or_test_system = "CEM cells HIV-1 protection, formazan growth assay"
recorded_measurement = "< 3.76"

[[record]]
compound = "Cn1c2c(c(=O)n(C)c1=O)CN(Cc1ccccc1)CN2"
target_or_test_system = "CEM cells HIV-1 protection, formazan growth assay"
recorded_measurement = "< 3.70"

[[record]]
compound = "COc1cc(CS(=O)c2ccc(O)cc2)cc(OC)c1OC (stereo unspecified)"
target_or_test_system = "CEM cells HIV-1 protection, formazan growth assay"
recorded_measurement = "< 3.70"

[[record]]
compound = "C[C@@]12C[C@@H](c3ccccc3O1)N1CCCSC1=N2"
target_or_test_system = "CEM cells HIV-1 protection, formazan growth assay"
recorded_measurement = 4.13

[[record]]
compound = "NC1=C(c2nc(-c3ccccc3)cs2)C(c2ccco2)c2c(c3ccccc3oc2=O)O1 (stereo unspecified)"
target_or_test_system = "CEM cells HIV-1 protection, formazan growth assay"
recorded_measurement = "< 3.70"

[[record]]
compound = "C=CCC(C=C=CCN(C)C)CO (stereo unspecified)"
target_or_test_system = "CEM cells HIV-1 protection, formazan growth assay"
recorded_measurement = "< 2.92"

[[record]]
compound = "COc1ccc(NC(=O)/C(=N/NC(N)=S)C2C(=O)NC(=S)NC2=O)c(OC)c1"
target_or_test_system = "CEM cells HIV-1 protection, formazan growth assay"
recorded_measurement = "< 3.23"

[[record]]
compound = "C=CCOCn1cnc2c(=O)[nH]c(N)nc21"
target_or_test_system = "CEM cells HIV-1 protection, formazan growth assay"
recorded_measurement = "< 3.70"

[[record]]
compound = "Cc1[nH]cc2c1C(c1ccccc1F)=NCC(=O)N2"
target_or_test_system = "CEM cells HIV-1 protection, formazan growth assay"
recorded_measurement = "< 3.64"

[[record]]
compound = "CC(=O)N1CN=C2Sc3ccccc3N2C1"
target_or_test_system = "CEM cells HIV-1 protection, formazan growth assay"
recorded_measurement = "< 3.70"

[[record]]
compound = "COc1ccc(-n2[nH]c(=O)n(C)c2=O)cc1"
target_or_test_system = "CEM cells HIV-1 protection, formazan growth assay"
recorded_measurement = "< 3.70"

[[record]]
compound = "COc1cccc(/C=N/[N-]C(N)=O)c1[O-].[Co+2].[OH3+]"
target_or_test_system = "CEM cells HIV-1 protection, formazan growth assay"
recorded_measurement = "< 3.90"

[[record]]
compound = "O=C1CC2c3[nH]c4ccccc4c3CCN2C2=C1CCCC2 (stereo unspecified)"
target_or_test_system = "CEM cells HIV-1 protection, formazan growth assay"
recorded_measurement = "< 3.70"

[[record]]
compound = "CC1Oc2c3c(cc(O)c2C(=O)[C@@H]1C)OC(C)(C)CC3 (stereo partly specified)"
target_or_test_system = "CEM cells HIV-1 protection, formazan growth assay"
recorded_measurement = "< 3.70"

[[record]]
compound = "C/C(C/C(C)=N\\N=C(N)N)=N/N=C(N)N"
target_or_test_system = "CEM cells HIV-1 protection, formazan growth assay"
recorded_measurement = "< 3.70"

[[record]]
compound = "CCOC(=O)CCCc1cc[c]([Sb](=[O])([OH])[OH])cc1"
target_or_test_system = "CEM cells HIV-1 protection, formazan growth assay"
recorded_measurement = "< 3.70"

[[record]]
compound = "Cc1ccc(/C=C2/Sc3scc(-c4ccccc4)[n+]3C2=O)cc1"
target_or_test_system = "CEM cells HIV-1 protection, formazan growth assay"
recorded_measurement = "< 3.70"

[[record]]
compound = "Cc1ccc(NCC(=O)N2CC(=O)Nc3ccccc32)c(C)c1"
target_or_test_system = "CEM cells HIV-1 protection, formazan growth assay"
recorded_measurement = "< 4.77"

[[record]]
compound = "COc1ccc(-c2cc(=O)c3c(OC)c(OC)c(OC)cc3o2)cc1"
target_or_test_system = "CEM cells HIV-1 protection, formazan growth assay"
recorded_measurement = "< 3.89"

[[record]]
compound = "O/N=c1/sc2ccccc2nc1-c1ccccc1"
target_or_test_system = "CEM cells HIV-1 protection, formazan growth assay"
recorded_measurement = "< 3.70"

